- Experimental target: Adenosine receptor A2a (Homo sapiens, UniProt P29274)
- Sequence (P29274 whole entry): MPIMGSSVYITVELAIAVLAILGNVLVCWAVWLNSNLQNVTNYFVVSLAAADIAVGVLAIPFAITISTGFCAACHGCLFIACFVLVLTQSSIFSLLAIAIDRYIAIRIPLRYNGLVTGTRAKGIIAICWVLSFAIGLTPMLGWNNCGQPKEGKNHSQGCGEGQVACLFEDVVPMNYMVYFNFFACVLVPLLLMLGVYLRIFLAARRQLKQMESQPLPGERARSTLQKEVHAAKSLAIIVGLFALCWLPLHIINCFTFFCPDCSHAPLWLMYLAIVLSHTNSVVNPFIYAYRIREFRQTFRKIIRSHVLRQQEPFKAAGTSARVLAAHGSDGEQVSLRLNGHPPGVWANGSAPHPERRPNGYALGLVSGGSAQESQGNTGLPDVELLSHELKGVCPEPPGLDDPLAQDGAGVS
pKi: −log10 of the molar value.
Each entry below carries its reported pKi.

Consider the worked cases shown below.
>>> reported("COc1ccc(-c2cn3cc(-c4ccco4)cc(N)c3n2)cc1OC")
6.93
>>> reported("COc1ccc(-c2cn3cc(C(=O)NCCCN4CCCCC4)cc(N)c3n2)cc1OC")
"< 5.00"
>>> reported("COc1ccc(-c2cn3cc(C(=O)NCCCN4CCOCC4)cc(N)c3n2)cc1OC")
"< 5.00"

Task: Param item = "COc1ccc(-c2cn3cc(C(=O)NCCCN4CCN(C)CC4)cc(N)c3n2)cc1OC" ; retrieve measured pKi.
Output: < 5.00
